# Test system: PPARg:RXRa 30nM:10nM, anti-RXR (NR concentration 30 nM, RXRa partner concentration 10 nM)
# assay procedure: PBM binding z-score (relative to random genomic background probes); higher = stronger binding; sequences stand for … in GC…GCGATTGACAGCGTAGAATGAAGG
Dear colleague, classification is by PBM binding z-score, with ranges listed here: L = under -0.05, M = from -0.05 up to 2, H = 2 and over

// known answers, use as guide
CAAACTAGGTCACCGGACGGTCAAAGTCCGCATG; H
ACAGACAGGTGAGTGAGGGTAACTCAGCTGGACG; L
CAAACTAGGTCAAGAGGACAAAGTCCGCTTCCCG; H

Textbook exercise: identify the category of the sequence given here, `ATCTCTAGGTAACAACTTCAGTGAAAGAGAGGAC` , according to its measured value.
M

Textbook exercise: identify the category of the sequence given here, `TCTTGTAGATCAACAGGAGGTTAAGATAGATCGA` , according to its measured value.
H

Textbook exercise: identify the category of the sequence given here, `GCGACTTGGGCAAAGCAGGTTACCATAAGGTTGG` , according to its measured value.
L

Textbook exercise: identify the category of the sequence given here, `GCTTGTAGATCAAGGTTAACAAAGACTAAGCTAA` , according to its measured value.
M

Textbook exercise: identify the category of the sequence given here, `GCTGCTAGGTCAACTAATGGTCAGCTAAAGCTCG` , according to its measured value.
M

Textbook exercise: identify the category of the sequence given here, `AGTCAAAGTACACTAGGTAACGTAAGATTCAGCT` , according to its measured value.
M

Textbook exercise: identify the category of the sequence given here, `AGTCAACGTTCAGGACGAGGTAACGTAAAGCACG` , according to its measured value.
L

Textbook exercise: identify the category of the sequence given here, `GGAACGAGGCCAAGTTGATAGCAGAGTTTGATGG` , according to its measured value.
L

Textbook exercise: identify the category of the sequence given here, `TCAGACAGGTGAAAGTAACTCAGGTACGCAGTCG` , according to its measured value.
H

Textbook exercise: identify the category of the sequence given here, `TCAGACAGGAGAAGGTAACTCAGGTACGCAGTCG` , according to its measured value.
H

Textbook exercise: identify the category of the sequence given here, `CGTCCAAGGTAAAGGTCAGTGAAAGAGACTCGAA` , according to its measured value.
H

Textbook exercise: identify the category of the sequence given here, `CCAGACAGGCGAGAAGGTAACTCAGCCTCGATTA` , according to its measured value.
L

Textbook exercise: identify the category of the sequence given here, `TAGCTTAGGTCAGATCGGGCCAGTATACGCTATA` , according to its measured value.
M

Textbook exercise: identify the category of the sequence given here, `CCTATTAGTCGACCATAAGGGCAACCGAAGCTCG` , according to its measured value.
L

Textbook exercise: identify the category of the sequence given here, `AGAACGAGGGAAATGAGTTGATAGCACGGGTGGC` , according to its measured value.
M

----------
# Test system: PXR:RXRa (NR concentration 270 nM, RXRa partner concentration 90 nM)
# assay procedure: PBM binding z-score (relative to random genomic background probes); higher = stronger binding; sequences stand for … in GC…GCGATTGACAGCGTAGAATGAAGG
measured property: PBM binding z-score

Examples with answers:
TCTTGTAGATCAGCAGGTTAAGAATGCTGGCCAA; 0.00264
CGTCCAAGGTCATAGGAGGTCAGTGCAGACAGAT; 6.81
TCGAGTTGGTTAGGGGCATTCAGAATGGCGTCGA; 1.14
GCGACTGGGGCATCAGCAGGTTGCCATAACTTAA; -0.58
TGGAGTAGGTTAGTCGGGGCATTCAGCCAACATA; 0.401

Name the recorded PBM binding z-score of the item `TAGCCTAGGTCAGATCGGGCCAGTATACGCTATA` in your answer.
1.01

Name the recorded PBM binding z-score of the item `AGAACGAGGGTACGCTGAGTTGATAGCAGAGTAG` in your answer.
0.223

Name the recorded PBM binding z-score of the item `CATCCAAGGTCATAGGAGGTCAGTGAAGACAGAT` in your answer.
6.96
